- experiment notes: Pharmacokinetic study of minocycline in CSF of rats, quantified by the microbiological method with 4PL curve fit
- Format: in vivo
- assay setup: rat, cerebrospinal fluid (CSF), other: intra CSF (transcutaneous cisternal magna puncture); normal Sprague-Dawley rats, intra CSF injection of 1 mg/mL MC solution, CSF sampled at 18 hours (FIG. 4)
property: concentration at 18 h (ng/mL)
Report the value in ng/mL with no unit label.

QUERY: Which concentration at 18 h value is on record for CN(C)c1ccc(O)c2c1C[C@H]1C[C@H]3[C@H](N(C)C)C(O)=C(C(N)=O)C(=O)[C@@]3(O)C(O)=C1C2=O [Minocycline] ?
RESULT: 69
